Cited source for all entries: PubChem BioAssay (NCI)

- System: DLD-1 colon
- assay_notes: NCI tumour cell line growth inhibition, 48 h
Recorded TGI values for a group of compounds are listed next.
Answer with a number only, understood to be in µM.

[[record]]
molecule = "O=C1C=CC2(C=C1)C[C@H](NC(=O)C(F)(F)F)C(=O)O2"
metric_name = "TGI"
readout_number = 53.1


Switching to the query record.
So what does the record say about TGI for `CC(=O)O[C@H]1CC[C@@]2(C)[C@H](CC[C@@H]3[C@@H]2CC[C@]2(C)[C@@H](c4ccc(=O)oc4)C[C@H]4O[C@]342)C1` ? 7.34

====

TGI listing for selected compounds.
- Test system: SK-MEL-5 melanoma
- assay_notes: NCI tumour cell line growth inhibition, 48 h

[[record]]
compound = "O=C(Nc1cccc(NC(=O)c2cc(=O)c3ccccc3o2)n1)c1cc(=O)c2ccccc2o1"
measurement_target = "SK-MEL-5 melanoma"
metric_name = "TGI"
result = "> 100 µM"

[[record]]
compound = "COc1ccc2nc3ccccc3c(NCCCCN(C)CCCl)c2c1"
measurement_target = "SK-MEL-5 melanoma"
metric_name = "TGI"
result = "0.442 µM"

[[record]]
compound = "COC(=O)CC(C(C(C)=O)C(=O)OCc1ccccc1)N1C(=O)OCC1c1ccccc1 (configuration not stated)"
measurement_target = "SK-MEL-5 melanoma"
metric_name = "TGI"
result = "> 100 µM"

[[record]]
compound = "Cc1nc(-c2cc3cc(Cl)ccc3oc2=O)cc2c1c(=O)oc1ccc(Cl)cc12"
measurement_target = "SK-MEL-5 melanoma"
metric_name = "TGI"
result = "> 100 µM"

[[record]]
compound = "OCNCCNc1nc2ccccc2c2[nH]c3ccccc3c12"
measurement_target = "SK-MEL-5 melanoma"
metric_name = "TGI"
result = "4.09 µM"


// query TGI value for entry `CN(C)C(=S)Oc1ccc2ccc(=O)oc2c1` > 100 µM

====

- System: COLO 205 colon
- assay_notes: NCI tumour cell line growth inhibition, 48 h
metric_name: TGI

[[record]]
compound = "Cc1nc(-n2nc(-c3ccccc3)cc2-c2ccccc2)sc1C(/C=C/c1ccc([N+](=O)[O-])cc1)=N/NC(=O)c1ccncc1"
metric_name = "TGI"
result = "58.4 µM"

[[record]]
compound = "NC1=NCC(CN2CCCC2)O1 (stereo unspecified)"
metric_name = "TGI"
result = "> 100 µM"

[[record]]
compound = "COc1ccccc1CNCCCCCCCCCCCCN1C(=O)c2ccc3c4c(ccc(c24)C1=O)C(=O)N(CCCCCCCCCCCCNCc1ccccc1OC)C3=O"
metric_name = "TGI"
result = "> 50 µM"


If you can, please state the reported TGI value of O=C(c1ccc(Cl)cc1)C1OC12C(=O)Nc1ccccc12 (stereo unspecified) . 8.53 µM

Follow-up item: CCOC(=O)c1cnccc1CC1(C#N)c2ccccc2C=CN1C(=O)c1ccccc1 (stereo unspecified) > 100 µM

Record: CC(=O)C1C(=O)N(C(C)C)C[C@@H]2CCC(=O)C[C@H]12 (stereo partly specified) > 100 µM

Then O=C1c2ccccc2C(=O)N1c1nc(-c2ccc(Cl)cc2)cc(N2N=C(c3ccc(Br)cc3)CC2c2ccccc2)n1 (stereo unspecified) ? 4.84 µM

Input CC(=O)OC1CC2C(=O)C(=O)C1(C)C2(C)C (stereo unspecified) > 100 µM

Try this compound too: `Cn1c2ccccc2n2c3ncccc3c(=S)c(C#N)c12` > 100 µM

Same question for CCC(CC(C)C)Nc1ccc(NC(CC)CC(C)C)cc1 (stereo unspecified) please. 23 µM

How about `N/C(=N\Nc1ccc(S(N)(=O)=O)cc1)c1cnccn1` ? > 100 µM
